Test system: 4DE4-CCR3 cells
procedure-details: Cytotoxicity in 4DE4-CCR3 cells
Assay type: cell-based, mouse
measurement-parameters: concentrations tested in chemotaxis assay
Where no end group is shown, it is not given here.
attribute-measured: cytotoxicity

[[record]]
substance = "CDDDTIFCLVLPLLVMAICYTGII [TM5]"
value_reported = "highly cytotoxic"

[[record]]
substance = "CDDDVMLVTEVIAYSHCCMNPVIYAFV [TM7]"
value_reported = "highly cytotoxic"

[[record]]
substance = "LIFVIMAVFFIFWTPYNVAILDDDC [TM6]"
value_reported = "highly cytotoxic"


Data origin, for the record: patent US11167012B2
